biological target: rat peripheral BZD receptor (Rattus norvegicus); construct: rat heart membranes and [3H]PK 11195; from tissue; host or cells: rat heart membrane homogenates; assay: radioligand binding test, [3H]PK 11195, rat heart membranes; settings: 10 μM test compound; 0.2 nM [3H]PK 11195; rat heart membrane homogenates; 15 min at 22° C.
Readout Name: inhibition at 10 µM (%)

> print(dat)
                                    compound         readout.name  recorded.number
 1  CCCc1nc(N2CCOCC2)cc(C)c1C(=O)NCc1cccc(F)c1 [compound 10]  inhibition at 10 µM               91
 2  Cc1cc(N2CCOCC2)nc(C2CC2)c1C(=O)NCc1cccc(F)c1 [compound 15]  inhibition at 10 µM               90
 3  O=C(NCC1CC2CCC1C2)c1cccnc1SCCC(F)(F)c1ccc(F)cc1 (stereo not drawn) [compound 6]  inhibition at 10 µM               99
 4  Cc1cc(N2CCOCC2)nc(C2CC2)c1C(=O)NCc1ccc(F)cc1 [compound 11]  inhibition at 10 µM               87
 5  COc1nc(N2CCOCC2)cc(C)c1C(=O)NCc1ccc(F)cc1 [compound 9]  inhibition at 10 µM               53
 6  CC(C)CCNC(=O)c1cccnc1SCCC(F)(F)c1ccc(F)cc1 [compound 16]  inhibition at 10 µM               96
 7  CC(C)CCNC(=O)c1cccnc1SCCC(F)(F)c1ccc(F)c(F)c1 [compound 12]  inhibition at 10 µM               97
 8  Cc1c(C(=O)NCc2cccc(F)c2)c(C(C)C)nc2cc(C(F)(F)F)ccc12 [compound 1]  inhibition at 10 µM               87
 9  COc1nc(N2CCOCC2)cc(C)c1C(=O)NCc1ccc(Cl)cc1 [compound 4]  inhibition at 10 µM               49
10  COc1nc(N2CCOCC2)cc(C)c1C(=O)NCc1cccc(F)c1 [compound 8]  inhibition at 10 µM              103
11  Cc1cc(N2CCOCC2)nc(C2CC2)c1C(=O)NCc1ccc(Cl)cc1 [compound 7]  inhibition at 10 µM               57
12  CCSc1nc(N2CCOCC2)cc(C)c1C(=O)NCc1cccc(F)c1 [compound 13]  inhibition at 10 µM               95
13  CCSc1nc(N2CCOCC2)cc(C)c1C(=O)NCCCC(C)(C)C [compound 2]  inhibition at 10 µM               43
14  CCSc1nc(N2CCOCC2)cc(C)c1C(=O)NCc1ccc(Cl)cc1 [compound 3]  inhibition at 10 µM               91
15  O=C(NCc1ccc(F)cc1)c1cccnc1SCCC(F)(F)c1ccc(F)cc1 [compound 5]  inhibition at 10 µM              102
